- Test target: hERG (Homo sapiens (Human), UniProt Q12809)
- Sequence (Q12809 whole entry): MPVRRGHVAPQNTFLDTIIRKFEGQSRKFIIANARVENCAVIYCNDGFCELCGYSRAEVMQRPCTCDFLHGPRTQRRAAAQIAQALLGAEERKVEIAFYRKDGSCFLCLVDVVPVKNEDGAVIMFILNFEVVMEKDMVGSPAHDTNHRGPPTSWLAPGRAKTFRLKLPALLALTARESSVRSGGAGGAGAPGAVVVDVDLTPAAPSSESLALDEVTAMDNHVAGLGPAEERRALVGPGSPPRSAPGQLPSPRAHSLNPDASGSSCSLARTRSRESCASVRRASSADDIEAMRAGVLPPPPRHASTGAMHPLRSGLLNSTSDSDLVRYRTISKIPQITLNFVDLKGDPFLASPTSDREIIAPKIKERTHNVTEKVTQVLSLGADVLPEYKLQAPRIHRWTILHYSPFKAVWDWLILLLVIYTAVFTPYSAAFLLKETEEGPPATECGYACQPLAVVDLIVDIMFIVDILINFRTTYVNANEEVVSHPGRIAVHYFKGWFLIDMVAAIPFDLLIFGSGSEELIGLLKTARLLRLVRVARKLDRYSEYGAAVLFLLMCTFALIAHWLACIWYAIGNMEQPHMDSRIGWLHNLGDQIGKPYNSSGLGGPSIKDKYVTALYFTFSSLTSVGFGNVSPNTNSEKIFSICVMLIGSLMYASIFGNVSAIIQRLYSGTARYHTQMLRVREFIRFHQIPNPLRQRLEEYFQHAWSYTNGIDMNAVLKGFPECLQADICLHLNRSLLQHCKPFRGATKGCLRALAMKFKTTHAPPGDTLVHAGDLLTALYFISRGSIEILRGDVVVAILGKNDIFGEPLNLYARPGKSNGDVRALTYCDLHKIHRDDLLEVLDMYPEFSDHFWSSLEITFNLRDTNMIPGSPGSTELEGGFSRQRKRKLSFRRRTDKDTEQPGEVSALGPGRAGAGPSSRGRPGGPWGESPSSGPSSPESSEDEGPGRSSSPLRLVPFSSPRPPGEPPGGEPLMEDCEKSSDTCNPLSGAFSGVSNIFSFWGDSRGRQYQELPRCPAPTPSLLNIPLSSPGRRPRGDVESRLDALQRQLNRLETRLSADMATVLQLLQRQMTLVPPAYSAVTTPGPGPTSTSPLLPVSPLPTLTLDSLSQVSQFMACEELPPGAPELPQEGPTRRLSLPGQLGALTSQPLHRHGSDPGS
- Assay protocol: hERG inhibition, IonWorks patch clamp electrophysiology
- Assay type: cell-based
- Conditions used: human; hERG, 11 μM; read-out: % Inhibition at Top Concentration
// values below are reported inhibition at 11 µM
// note: answer is a bare numeric in %

# annotated cases, reported inhibition at 11 µM shown
{"Compound": "COc1cc(Nc2cc(Oc3ccc(NC(=O)Nc4cc(C(C)(C)C)cc(NS(C)(=O)=O)c4OC)c4ccccc34)ccn2)cc(OC)c1C(=O)NCCOCCOCCOP(=O)(O)O", "inhibition at 11 µM, %": 19}
{"Compound": "COc1cc(Nc2cc(Oc3ccc(NC(=O)Nc4cc(C(C)(C)C)cc(NC(=O)CO)c4OC)c4ccccc34)ccn2)ccc1C(=O)NCCN1CC[S+]([O-])CC1", "inhibition at 11 µM, %": 7}
{"Compound": "COc1cc(Nc2cc(Oc3ccc(NC(=O)Nc4cc(C(C)(C)C)cc(N(CCO)S(C)(=O)=O)c4OC)c4ccccc34)ccn2)ccc1C(=O)NCCN1CC[S+]([O-])CC1", "inhibition at 11 µM, %": -6}
{"Compound": "CCOP(C)(=O)c1ccc(Nc2cc(Oc3ccc(NC(=O)Nc4cc(C(C)(C)C)cc(NS(C)(=O)=O)c4OC)c4ccccc34)ccn2)cc1OC (centres unmarked)", "inhibition at 11 µM, %": 13}

Turning to the following compound.
Prompt: Test system hERG (Homo sapiens (Human), UniProt Q12809); read-out inhibition at 11 µM; what value for COc1cc(Nc2cc(Oc3ccc(NC(=O)Nc4cc(C(C)(C)C)cc(NS(C)(=O)=O)c4OC)c4ccccc34)ccn2)ccc1P(C)(=O)O ?
Response: 18
